Molecular target: plasma renin activity (PRA) (Macaca fascicularis)
Conditions: male Macaca fascicularis; 1 mg/kg orally in 0.5% methylcellulose; plasma 4 hr after administration; amended with vehicle group
Counter-ions that a name gives are not always drawn.
Measured Macaca fascicularis plasma renin activity: PPA inhibitory activity (%, n = 3-7) of individual entries
Give just the number in %; leave the unit off.

Below are worked cases with known answers.
>  <compound>
COCCCCn1c(C(=O)N(CC2CC2)[C@@H]2CNC[C@H](C(=O)N3CCOCC3)C2)nc2ccccc21 [Example 253, dihydrochloride]

>  <unit of measurement>
%

>  <quantitative result>
77

$$$$
>  <compound>
COCCCCc1c(C(=O)N(CC(C)C)[C@@H]2CNC[C@H](C(=O)N3CCOCC3)C2)nnn1-c1ccccc1F.Cl

>  <unit of measurement>
%

>  <quantitative result>
67

$$$$
>  <compound>
COCCCCn1c(C(=O)N(CC(C)C)[C@@H]2CNC[C@H](C(N)=O)C2)nc2ccccc21 [Example 25, dihydrochloride]

>  <unit of measurement>
%

>  <quantitative result>
79

$$$$
>  <compound>
COCCCCn1c(C(=O)N(CC(C)C)[C@@H]2CNC[C@H]([C@H](C)O)C2)nc2ccccc21.Cl.Cl

>  <unit of measurement>
%

>  <quantitative result>
90

$$$$

Q: Please give the documented Macaca fascicularis plasma renin activity: PPA inhibitory activity (%, n = 3-7) of COCCCCn1c(C(=O)N(CC(C)C)[C@@H]2CNC[C@H](C(=O)N3CCOCC3)C2)nc2ccc(F)cc21 [Example 11, dihydrochloride]
Ans: 89

Q: Identify the reported Macaca fascicularis plasma renin activity: PPA inhibitory activity (%, n = 3-7) for the following entry. "COCCCCn1c(C(=O)N(CC(C)C)[C@@H]2CNC[C@H]([C@@H](O)COC)C2)nc2ccccc21.Cl.Cl"
Ans: 77

Q: For the compound COCCCCn1c(C(=O)N(CC(C)C)[C@@H]2CNC[C@H](C(C)O)C2)nc2ccccc21 (stereo partly shown) [Example 42, dihydrochloride] , give its reported Macaca fascicularis plasma renin activity: PPA inhibitory activity (%, n = 3-7).
Ans: 70

###

Target: plasma renin activity (PRA) (Macaca fascicularis, UniProt Q6DLS0)
Sequence (Q6DLS0 67-406): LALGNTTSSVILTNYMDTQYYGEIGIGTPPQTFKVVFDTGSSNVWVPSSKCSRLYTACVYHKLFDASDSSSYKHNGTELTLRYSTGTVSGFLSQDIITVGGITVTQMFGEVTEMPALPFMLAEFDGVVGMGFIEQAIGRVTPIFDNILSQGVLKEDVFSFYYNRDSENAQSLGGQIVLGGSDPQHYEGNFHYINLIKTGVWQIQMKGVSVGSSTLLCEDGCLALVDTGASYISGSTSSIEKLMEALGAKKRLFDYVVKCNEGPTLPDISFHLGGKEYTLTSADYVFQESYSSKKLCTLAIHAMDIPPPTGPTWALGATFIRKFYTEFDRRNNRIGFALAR
Conditions: male Macaca fascicularis; 1 mg/kg orally in 0.5% methylcellulose; plasma 4 hr after administration; amended with vehicle group
Counter-ions that a name gives are not always drawn.
Here the recorded Macaca fascicularis plasma renin activity: PPA inhibitory activity (%, n = 3-7) is given for each entry.
API: value field is a number in %; no unit string.

>  <compound>
COCCCCn1c(C(=O)N(CC(C)C)[C@@H]2CNC[C@H](C(=O)N3CCCC3)C2)nc2cc(F)ccc21 [Example 18, dihydrochloride]

>  <quantitative result>
89

$$$$
>  <compound>
COCCCCn1c(C(=O)N(CC(C)C)[C@@H]2CNC[C@H](C(O)COC)C2)nc2ccccc21 (stereo partly drawn) [Example 48, dihydrochloride]

>  <quantitative result>
78

$$$$
>  <compound>
COCCCCn1c(C(=O)N(CC(C)C)[C@@H]2CNC[C@H](C(=O)N3CCOCC3)C2)nc2ccc(OC)cc21 [Example 60, dihydrochloride]

>  <quantitative result>
85

$$$$
>  <compound>
COCCCCn1c(C(=O)N(CC(C)C)[C@@H]2CNC[C@H](C(=O)N3CCCCC3)C2)nc2ccccc21 [Example 21, dihydrochloride]

>  <quantitative result>
85

$$$$
>  <compound>
CCC(O)[C@H]1CNC[C@@H](N(CC(C)C)C(=O)c2nc3ccccc3n2CCCCOC)C1 (stereo partly drawn) [Example 76, dihydrochloride]

>  <quantitative result>
79

$$$$

Q: Note down Macaca fascicularis plasma renin activity: PPA inhibitory activity (%, n = 3-7) recorded for COCCCCn1c(C(=O)N(CC(C)C)[C@@H]2CNC[C@H](CO)C2)nc2ccccc21 [Example 40, dihydrochloride]
Ans: 75

Q: State its Macaca fascicularis plasma renin activity: PPA inhibitory activity (%, n = 3-7): CC[C@@H](O)[C@H]1CNC[C@@H](N(CC(C)C)C(=O)c2nc3ccccc3n2CCCCOC)C1.Cl.Cl [Example 75-2]
Ans: 71

Q: In one line, give reported Macaca fascicularis plasma renin activity: PPA inhibitory activity (%, n = 3-7) of the entry COCCCCn1c(C(=O)N(CC(C)C)[C@@H]2CNC[C@H]([C@H](O)COC)C2)nc2ccccc21.Cl.Cl [Example 73-2] .
Ans: 90

Q: Fill in reported Macaca fascicularis plasma renin activity: PPA inhibitory activity (%, n = 3-7) for this entry: COCCCCn1c(C(=O)N(CC(C)C)[C@@H]2CNC[C@H]([C@@H](C)O)C2)nc2ccccc21.Cl.Cl [Example 74-2]
Ans: 54
